Origin of measurements: patent US12577201B2

experiment: Stability in liver microsomes, human; assay type: in vitro ADME; conditions: 60 minutes, read-out: In vitro Clint
readout.name: microsomal CLint at 1 μM (µL/min/mg)
I only need the number, in µL/min/mg, no unit after it.

Recorded results for 3 molecules are shown here.
[[record]]
molecule = "CC(=O)N[C@@H](Cc1c[nH]c2ccccc12)C(=O)N[C@@H](CCC(=O)C=[N+]=[N-])C(=O)OC(C)C [Reference compound A, reference compound]"
numeric_value = 119

[[record]]
molecule = "CO[C@@H](CCSC)C(=O)N[C@@H](CCC(=O)C=[N+]=[N-])C(=O)OC(C)C [Compound 443]"
numeric_value = 73.5

[[record]]
molecule = "CO[C@@H](C)C(=O)N[C@@H](CCC(=O)C=[N+]=[N-])C(=O)OC(C)C [Compound 2]"
numeric_value = 43.4


# evaluate next
Query: Please indicate microsomal CLint at 1 μM recorded for CO[C@@H](C)C(=O)N[C@@H](CCC(=O)C=[N+]=[N-])C(=O)SC(C)C [Compound 459]
Reply: 18.9
